This collection of values is drawn from ChEMBL document CHEMBL5303304.

System: HEK-293T
method: Incucyte cell viability with HEK293T; further: unitless GR value; below 1 slowed growth and below 0 cell loss
Assay type: toxicity, cell-based
experimental.parameters: human, 6 h, 10 µM, compound concentration 10 uM, replicate number 2
assay.endpoint: Growth Rate

CS(=O)(=O)CCNCc1ccc(-c2ccc3ncnc(Nc4ccc(OCc5cccc(F)c5)c(Cl)c4)c3c2)o1 [LAPATINIB] ... 0.95
Cl.Cl.N#Cc1ccc(O[C@@H]2c3ccccc3C[C@H]2N2CCC[C@@H](N)C2)c(Cl)c1 ... -0.57
Cc1c[nH]c(-c2cnc(NCCNc3ccc(C#N)cn3)nc2-c2ccc(Cl)cc2Cl)n1 [LADUVIGLUSIB] ... 0.14
Cn1nc(C(=O)NCc2ccc(C(=O)O)cc2)cc1-c1ccc2[nH]ccc2c1 [BI 4395] ... 0.57
Cn1cc(-n2cnc3c(NCc4nc5cc(Cl)c(Cl)cc5[nH]4)nc(N4CCOCC4)nc32)cn1 ... -0.51
c1ccc(C2CCN(c3cnc4c(N5CCOCC5)nccn34)CC2)cc1 ... 0.9
Cc1c(NC(=O)COc2ccc(Cl)cc2C(=O)c2cc(F)cc(C(F)(F)F)c2)ccc(C(=O)O)c1F [BI 2540] ... 0.58
c1ccc2c(c1)SCc1c-2[nH]c2ccccc12 ... -0.96
CC[C@@H]1C(=O)N(C)c2cnc(Nc3ccc(C(=O)NC4CCN(C)CC4)cc3OC)nc2N1C1CCCC1 [BI-2536] ... 0.73
CCn1c(-c2nc3cc(C(=O)N4CCCC(N)C4)ccc3n2C)cc2ccccc21.Cl (stereo unspecified) ... 0.09
C=CC(=O)Nc1cccc(C)c1Nc1ncc2cc(-c3c(Cl)c(OC)cc(OC)c3Cl)ccc2n1 ... -0.56
COc1cc(-c2cc3ncccc3c(OC[C@H]3CNC(=O)C3)n2)cc(OC)c1OC1CCOCC1.O=C(O)C(F)(F)F ... -0.14
CCc1cc2c(cc1N1CCC(N3CCOCC3)CC1)C(C)(C)c1[nH]c3cc(C#N)ccc3c1C2=O [ALECTINIB] ... 0.59
CCc1cncnc1N1CCN(Cc2nc3cc(C(F)(F)F)ccc3[nH]2)CC1 ... 0.28
C[S+](C)[O-] [DIMETHYL SULFOXIDE] ... 0.48
CO[C@H]1C[C@@H]2CC[C@@H](C)[C@@](O)(O2)C(=O)C(=O)N2CCCC[C@H]2C(=O)O[C@H]([C@H](C)C[C@@H]2CC[C@@H](O)[C@H](OC)C2)CC(=O)[C@H](C)/C=C(\C)[C@@H](O)[C@@H](OC)C(=O)[C@H](C)C[C@H](C)/C=C/C=C/C=C/1C [SIROLIMUS] ... 0.36
CC(=O)Nc1cccc(-n2c(=O)n(C3CC3)c(=O)c3c(Nc4ccc(I)cc4F)n(C)c(=O)c(C)c32)c1 [TRAMETINIB] ... 0.92
C[C@@H](c1ccc(F)cc1)n1nnc2cnc3ccc(-c4ccc5ocnc5c4)cc3c21 ... 0.07
CC(C)Oc1ccc(Cc2ccc(NC3=NCCN3)cc2)cc1 ... -0.39
CCCCCCCC/C=C\CCCCCCCC(=O)NCCO [OLEOYLETHANOLAMIDE] ... 0.43
O=C(Cc1ccccc1[N+](=O)[O-])Nc1ccc(-c2ccc(C(O)(C(F)(F)F)C(F)(F)F)cc2F)cc1 ... 0.13
Cc1cc(Nc2ncc(Cl)c(Nc3ccccc3S(=O)(=O)C(C)C)n2)c(OC(C)C)cc1C1CCNCC1 [CERITINIB] ... -0.87
C[C@H](CCC(=O)O)[C@H]1CC[C@H]2[C@@H]3CC[C@@H]4C[C@H](O)CC[C@]4(C)[C@H]3CC[C@]12C [LITHOCHOLIC ACID] ... 0.73
CCOc1ccc(S(=O)(=O)Nc2ccc(Cl)cc2C#Cc2cnc(C(=O)[O-])cc2OC)c2ncccc12.[K+] ... 0.66
Nc1ncc2c(n1)-c1c([nH]c3ccc(C4CC4)cc13)CCCC2 ... 0.69
CC1(C)Oc2ncnc(N)c2N=C1c1ccc([C@H]2CC[C@H](CC(=O)O)CC2)cc1 ... 0.36
Cn1cc(NC(=O)c2ccc3nc4n(c3c2)CCCNC4=O)nc1C(=O)NC1CCCC1 ... 0.99
O=C1NCCSc2c1sc1ccc(O)cc21 ... -0.51
Cc1ccccc1Oc1cc(-n2c(=O)cc(C(F)(F)F)[nH]c2=O)c2ccccc2c1Cl [BAY-069] ... 0.24
Fc1ccc(-c2nc(-c3ccc4ccccc4c3F)[nH]c2-c2ccncc2)cc1 ... 0.42
Cc1ccc(S(=O)(=O)O)cc1.Cn1cc(Nc2nccc(N3CC4CCC(C3)N4C(=O)[C@@H]3CC3(F)F)n2)cn1 ... 0.93
